The reported measurements were obtained from paper PMC9967275.

biological target: cruzain (Trypanosoma cruzi, UniProt P25779); assay: biochemical; settings: IC50 against cruzain and TbrCatL (summary), cruzain and TbrCatL, with or without pre-incubation
Sequence (P25779 123-337 limits assumed): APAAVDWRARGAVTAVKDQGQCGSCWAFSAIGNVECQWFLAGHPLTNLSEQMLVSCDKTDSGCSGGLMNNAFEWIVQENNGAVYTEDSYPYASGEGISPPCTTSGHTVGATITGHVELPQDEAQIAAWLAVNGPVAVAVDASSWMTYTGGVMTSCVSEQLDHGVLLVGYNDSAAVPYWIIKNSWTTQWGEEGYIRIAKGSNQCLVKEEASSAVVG
pIC50: −log10 of the molar value.
Reported pIC50 values for a set of molecules
MEASURED_ENDPOINT: pIC50

[
  {
    "STRUCTURE_AS_SMILES": "COc1cc(C2=NCCN2)cc2cc(-c3ccc(C4=NCCN4)cc3)oc12",
    "ASSAY_SYSTEM": "cruzain (Trypanosoma cruzi, UniProt P25779)",
    "MEASURED_ENDPOINT": "pIC50",
    "RESULT": "5.40 to 5.70"
  },
  {
    "STRUCTURE_AS_SMILES": "CN1CCN(CCCOc2ncc(Nc3ncc(-c4ccc(C(F)(F)F)c(F)c4)nc3C(N)=O)cn2)CC1",
    "ASSAY_SYSTEM": "cruzain (Trypanosoma cruzi, UniProt P25779)",
    "MEASURED_ENDPOINT": "pIC50",
    "RESULT": "5.40 to 5.70"
  }
]

----------
molecular target: cruzain (Trypanosoma cruzi, UniProt P25779); experiment: biochemical; details: read-out: Inhibition at 5 µM (Mean ± SEM %) Cruzain 0′, 5 µM, no pre-incubation, initial screening
Reported inhibition at 5 µM values for a set of compounds

[
  {
    "COMPOUND": "O=C(NCCN1CCCC1)c1cc(NCCCCN2CCC(F)(F)CC2)nc2ccc(Cl)cc12",
    "inhibition at 5 µM / %": 40
  },
  {
    "COMPOUND": "CN1CCN(CCCOc2ncc(Nc3ncc(-c4ccc(C(F)(F)F)c(F)c4)nc3C(N)=O)cn2)CC1",
    "inhibition at 5 µM / %": 41
  },
  {
    "COMPOUND": "N=C(N)Nc1ccc(-c2ccc(-c3ccc(NC(=N)N)c(Cl)c3)o2)cc1Cl",
    "inhibition at 5 µM / %": 83
  },
  {
    "COMPOUND": "COc1ccc(C2=NN(C3CCCCCC3)C(=O)C2(C)C)cc1OCCCCOc1ccc(-c2nn[nH]n2)cc1",
    "inhibition at 5 µM / %": 34
  },
  {
    "COMPOUND": "N#Cc1ccc(-c2cnc(N)c(-c3ccc(C(N)=O)cc3)n2)cc1",
    "inhibition at 5 µM / %": 2
  },
  {
    "COMPOUND": "N=C(N)Nc1ccc(-c2ccc(-c3ccc(NC(=N)N)cc3Cl)o2)c(Cl)c1",
    "inhibition at 5 µM / %": 98
  },
  {
    "COMPOUND": "Cn1ccnc1CNCCS(=O)(=O)c1cccc(Nc2ccc(-c3cccc(F)c3)cn2)c1",
    "inhibition at 5 µM / %": 41
  },
  {
    "COMPOUND": "COc1ccc(C2=NN(C3CCCCCC3)C(=O)[C@H]3CC=CC[C@@H]23)cc1OCCCCOc1ccc(-c2nn[nH]n2)cc1",
    "inhibition at 5 µM / %": 50
  },
  {
    "COMPOUND": "O=C(NCCN1CCCC1)c1cc(NCCN2CCOCC2)nc2ccc(Cl)cc12",
    "inhibition at 5 µM / %": 24
  },
  {
    "COMPOUND": "CCn1cnc2c(Nc3cc(F)cc(F)c3)nc(C#N)nc21 [MMV676881, reference compound]",
    "inhibition at 5 µM / %": 100
  },
  {
    "COMPOUND": "CN1CCN(S(=O)(=O)c2ccc(-c3ccc4c(Nc5ccc6nn[nH]c6c5)ccnc4c3)cc2)CC1",
    "inhibition at 5 µM / %": 24
  },
  {
    "COMPOUND": "COc1cc(C2=NCCN2)cc2cc(-c3ccc(C4=NCCN4)cc3)oc12",
    "inhibition at 5 µM / %": 19
  }
]
